Just for reference, a protein production outcome set (Wang et al. 2014) is where these values come from.

assay.comment: label from the status in PepcDB records

input.sequence | protein production
MAQGNPLTPEEIELLHAGDEENDNTDTLMVIRVPNDGSSATAISIPRDTYVHDENVGNLKINGVYRAYKNRKASELVNSGESDQKHIDELSKEAGRKALISSISDLTGVTVDHYAEVGLLGFVLLTNAVGGVDVCLNNDVYDEFSGADFKAGQQTLRDGQALAFVRQRHGLPRGDLDRIVRQQAFMASLVAKVLSSGTLTNPSKLSDLGEAVSRSVVIDKNWDVMSFANQLQNLAGGNVKFNTIPVTSIDGVGDYGESVVTVDKNQVHQFFDRLLNGNNGEETPTSDSEAPAENPHTSTTIDVLNATSTTGLASQVAGHLSAKHYTIGNIGNALEGMYHESQIVAADPNNEAVKAIAAELGGLPITQRNDLEHHHHHH | failed
MRVQANSRSMGVLEDKARARTFYKYLSKVYDRVNTFIWTEEMRAEALSMLDIDAEDRVLDVGCGTGFGTEGLLKHTEHVYGLDQSPHQLTKAWEKFGKHDPVAFHFGDAERLPFKPDSFDVVWSSGSIEYWPHPVQGLRELRRVAKPGSQVLVVGPDYPASTVFRKLADAIMLFYDEDEADRMFREAGYEEIQHRVLRKEPNSPPAIVTVARAPAADD | failed
